assay: chemical genetic growth profiling, strain panel (AID 1159580);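 also: tested at 20 µM; growth read once vehicle control cultures reached saturation at 30 °C; 1 = growth at the plate median or of vehicle wells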; conditions: S. cerevisiae deletion strains, growth OD, locus YNR030W, strain Alg12, hits give low values
In all, about 5,500 compounds went through this assay and about 2,000 (36%) were called active. Not shown: some 18% with an inconclusive outcome. The list shows a part of the results.
I'd appreciate it if you marked entries True when normalized growth is lower than 1 and False when it is not.

Some solved cases for reference:
compound	assignedCategory
O=C(O)COCC(=O)N1CCc2c([nH]c3ccccc23)C1C(F)(F)F (configuration not stated)	False
Cc1ccc(Oc2ccc(C)cc2)cc1	True

Attention now turns to another entry.
Data request: Lab log: compare recorded normalized growth with 1; is it strictly lower for O=C(CSc1ccc(C(F)(F)F)cn1)N1CCc2c([nH]c3ccccc23)C1C(F)(F)F (configuration not stated) ?
Data returned: True

---

test: chemical genetic growth profiling, strain panel (AID 1159580); conditions: S. cerevisiae deletion strains, growth OD, locus YOR316C, strain cot1
The campaign covered roughly 5,500 compounds. About 2,000 (36%) were called active. Another 18% or so got no clear call; they are omitted. Rule as the data show it: active = normalized growth mostly below about 0.91 (no sharp cut-off); inconclusive = no clear call, values can overlap the other calls; inactive = mostly above about 0.92. This is one part of the list.
Tick one outcome: active, inactive

molecule	assignedCategory
CC(C)[N+](C)(CCOC(=O)C1c2ccccc2Oc2ccccc21)C(C)C	inactive
C[N+](C)(C)CCOP(=O)([O-])OP(=O)(O)OC[C@H]1OC(n2ccc(N)nc2=O)[C@H](O)[C@@H]1O (some centres not stated)	inactive
O=C1CC(c2ccccc2)Oc2ccccc21 (configuration not stated)	inactive
CCCCCC(C)N (configuration not stated)	inactive
CCCCOc1ccc(CC(=O)NO)cc1	inactive
COc1ccc2c(c1)[C@@]1(C)CCC(=O)C[C@H]1CC2	inactive
COc1ccc([C@@H]2CC(=O)c3c(O)cc(O)cc3O2)cc1O	inactive
CC(C)CC1C(=O)N2CCC[C@H]2C2(O)O[C@](NC(=O)C3C=C4c5cccc6[nH]c(Br)c(c56)C[C@H]4N(C)C3)(C(C)C)C(=O)N12 (some centres not stated)	inactive

Data request: Short answer needed: outcome of this test for COC(=O)c1c(Cl)c(Cl)c(C(=O)OC)c(Cl)c1Cl ?
Data returned: inactive

Data request: Short answer needed: outcome of this test for COc1ccc2c(c1)OC[C@@H](Cc1ccc(OC)c(OC)c1)[C@H]2O ?
Data returned: inactive

Data request: Short answer needed: outcome of this test for COc1cc(OC)c2c(c1)O[C@H](c1ccc(OC)c(OC)c1)[C@@H](O)C2 ?
Data returned: inactive

---

assay: chemical genetic growth profiling, strain panel (AID 1159580); conditions: S. cerevisiae deletion strains, growth OD, locus YMR231W, strain pep5
The whole screen tested about 5,500 compounds, of which about 2,000 (36%) were called active. About 18% were inconclusive and are not listed. No stated cut-off is given here; in the data, active means normalized growth mostly below about 0.91 (no sharp cut-off); inconclusive means no clear call, values can overlap the other calls; inactive means mostly above about 0.92. This is one part of the list.
Tick one outcome: true = active, false = inactive

compound	assignedCategory
CNc1ccccc1C(=O)N1CCc2c([nH]c3ccccc23)C1=O	false

Data request: Short answer needed: outcome of this test for CC(C)(N=NC(C)(C)C(=N)N)C(=N)N ?
Data returned: false

Data request: Short answer needed: outcome of this test for NC(=O)N1c2ccccc2CC(=O)c2ccccc21 ?
Data returned: false

Data request: Short answer needed: outcome of this test for COc1cc2c(cc1OC)C(=O)C(CC1CCN(Cc3ccccc3)CC1)C2 (stereo not drawn) ?
Data returned: false

Data request: Short answer needed: outcome of this test for COc1cc(O)c2c(=O)cc(C)oc2c1CC=C(C)C ?
Data returned: false

Data request: Short answer needed: outcome of this test for COc1ccc(C(=O)c2ccccc2O)c(O)c1 ?
Data returned: true

---

assay: chemical genetic growth profiling, strain panel (AID 1159580); conditions: S. cerevisiae deletion strains, growth OD, locus YER111C, strain swi4, hits give low values
Among all 5,500 compounds or so, about 2,000 (36%) were called active. About 18% were inconclusive and are not listed. This is one part of the list.
testReadout: normalized growth
Answer with a number only.

compound	normalized growth
C[N+](C)(C)CC(=O)[O-]	0.992

Data request: May I ask what normalized growth has been recorded for CC(C)CC1C(=O)N2CCC[C@H]2C2(O)O[C@](NC(=O)C3C=C4c5cccc6[nH]c(Br)c(c56)C[C@H]4N(C)C3)(C(C)C)C(=O)N12 (some centres undefined) ?
Data returned: 0.993

Data request: May I ask what normalized growth has been recorded for N#Cc1c(Cl)c(Cl)c(Cl)c(C#N)c1Cl ?
Data returned: 0.0874

Data request: May I ask what normalized growth has been recorded for COc1c(O)cc2oc3cc(O)c(CC=C(C)C)c(O)c3c(=O)c2c1CC=C(C)C ?
Data returned: 1.02

---

Some molecules, each annotated with its measured normalized growth.
experiment: chemical genetic growth profiling, strain panel (AID 1159580); conditions: S. cerevisiae deletion strains, growth OD, locus YDL185W, strain tfp1, hits give low values
Hit rate of the full screen: of about 5,500 compounds, about 2,000 (36%) were called active. About 18% were inconclusive and are not listed. The list shows a part of the results.
Answer with a number only.

Data request: May I ask what normalized growth has been recorded for C=CC1=C(C(=O)O)N2C(=O)[C@@H](NC(=O)/C(=N/O)c3csc(N)n3)[C@H]2SC1 ?
Data returned: 0.99

Data request: May I ask what normalized growth has been recorded for CNc1ccccc1C(=O)N1CCc2c([nH]c3ccccc23)C1=O ?
Data returned: 0.996

Data request: May I ask what normalized growth has been recorded for COc1ccc(C[C@H]2NC[C@H](O)[C@H]2OC(C)=O)cc1 ?
Data returned: 0.993

---

Some compounds, each annotated with its measured normalized growth.
test: chemical genetic growth profiling, strain panel (AID 1159580);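 also: tested at 20 µM; growth read once vehicle control cultures reached saturation at 30 °C; 1 = growth at the plate median or of vehicle wells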; conditions: S. cerevisiae deletion strains, growth OD, locus YPL241C, strain CIN2, hits give low values
Out of some 5,500 compounds screened, about 2,000 (36%) were called active. Not shown: some 18% with an inconclusive outcome. Some of the results follow.

compound	value
CCCN1CCC[C@@H]2Cc3nc(N)ncc3C[C@H]21	1 (inactive)
COc1ccccc1CC(=O)NC1CCN(Cc2ccccc2)CC1	1.13 (inactive)
Cc1nc(N=Nc2ccc(C(=O)O)cc2)c(COP(=O)(O)O)c(C=O)c1O	1.01 (inactive)
CC(C)(C)OC(=O)N1CCC(C(N)=O)CC1	1.03 (inactive)
CCCCOc1cc(C(=O)O)ccc1OC	1.01 (inactive)

Data request: May I ask what normalized growth has been recorded for CC(C)N(C(=O)CCl)c1ccccc1 ?
Data returned: 1.02 (inactive)

Data request: May I ask what normalized growth has been recorded for CCCCCCCCCCCCC/C=C/[C@@H](O)[C@@H](N)CO ?
Data returned: 0.926 (active)

Data request: May I ask what normalized growth has been recorded for COc1ccc(-c2c(O)c3cc4c(c(CC=C(C)C)c3oc2=O)OC(C)(C)CC4)cc1 ?
Data returned: 1.01 (inactive)

Data request: May I ask what normalized growth has been recorded for CC1(C)C2CC[C@]3(C)C(C(=O)C=C4[C@H]5C[C@@](C)(C(=O)O)CC[C@]5(C)CC[C@]43C)[C@@]2(C)CC[C@@H]1O (stereo not given in full) ?
Data returned: 1.05 (inactive)

---

Some molecules, each annotated with its measured normalized growth.
experiment: chemical genetic growth profiling, strain panel (AID 1159580);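 also: tested at 20 µM; growth read once vehicle control cultures reached saturation at 30 °C; 1 = growth at the plate median or of vehicle wells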; details: S. cerevisiae deletion strains, growth OD, locus YJL134W, strain LCB3, hits give low values
In all, about 5,500 compounds went through this assay and about 2,000 (36%) were called active. Not shown: some 18% with an inconclusive outcome. The list shows a part of the results.
Answer with a number only.

molecule	value
CC[C@@H](CO)NCCN[C@@H](CC)CO	1.02

Data request: May I ask what normalized growth has been recorded for COc1ccc(-c2coc3c(OC)c(OC)cc(O)c3c2=O)cc1 ?
Data returned: 1

Data request: May I ask what normalized growth has been recorded for OCC(O)Cc1ccc2c(c1)OCO2 (stereo unspecified) ?
Data returned: 1.01

---

test: chemical genetic growth profiling, strain panel (AID 1159580);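 also: tested at 20 µM; growth read once vehicle control cultures reached saturation at 30 °C; 1 = growth at the plate median or of vehicle wells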; settings: S. cerevisiae deletion strains, growth OD, locus YOL147C, strain pex11, hits give low values
Screen size: about 5,500 compounds; about 2,000 (36%) were called active. About 18% were inconclusive and are not listed. The list shows a part of the results.
testReadout: normalized growth
Answer with a number only.

Would you please look over these solved cases?
compound	normalized growth
CC(C)CC1C(=O)N2CCC[C@H]2C2(O)O[C@](NC(=O)C3C=C4c5cccc6[nH]c(Br)c(c56)C[C@H]4N(C)C3)(C(C)C)C(=O)N12 (stereo partly specified)	0.969
COc1ccc([C@@H]2CC(=O)c3c(O)cc(O)cc3O2)cc1O	0.998
CCCCCCCCCCCCC[N+](C)(C)Cc1ccccc1	0.0664

Now take the following compound into account.
Data request: May I ask what normalized growth has been recorded for O=C1CC(c2ccccc2)Oc2ccccc21 (stereo unspecified) ?
Data returned: 0.942
